assayed_target: MvitGOBP2 (Maruca vitrata)
Sequence (A0A088MJX9 entry or part of it): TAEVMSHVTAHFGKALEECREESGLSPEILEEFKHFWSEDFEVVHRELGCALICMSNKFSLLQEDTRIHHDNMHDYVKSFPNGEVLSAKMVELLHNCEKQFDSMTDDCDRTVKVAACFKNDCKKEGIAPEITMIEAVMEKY
test: Fluorescence competitive binding assay (1-NPN displacement) with recombinant MvitGOBP2
experimental_conditions: ligand concentration displacing 50% of fluorescence of MvitGOBP2/1-NPN complex; protein and 1-NPN 2 μM, pH 7.4, 25°C; read-out: MvitGOBP2 IC50
pIC50: −log10 of the molar value.

{"molecule": "CCc1ccc(CC)cc1", "pIC50": 4.39}
{"molecule": "CCc1cccc(CC)c1", "pIC50": 4.47}
{"molecule": "CC(=O)c1ccccc1", "pIC50": 4.40}
{"molecule": "CCCCCCCCOC(=O)CCC", "pIC50": 4.89}
{"molecule": "CC(C=O)Cc1ccccc1 (stereo not shown)", "pIC50": 5.16}
{"molecule": "C=C(C)[C@H]1CC=C(C)CC1", "pIC50": 4.36}
{"molecule": "CCC(=O)c1ccc(CC)cc1", "pIC50": 4.41}
{"molecule": "CC(=O)c1ccc(O)c(C)c1 [Compound 14, 4-hydroxy-3-methylacetophenone]", "pIC50": 4.59}
{"molecule": "CCc1ccc(C=O)cc1", "pIC50": 4.30}
{"molecule": "CCCCOC(=O)CCC", "pIC50": 4.35}
